The measurements presented in this section are drawn from patent US20170313776A1.

Consider the following binders; for each one, report its EC50.
Biological target: T1, human PD-1 expressed on cells (human, UniProt Q15116 25-288)
T1 construct: whole, on cells; One entry for cell-surface PD-1; also called CHO-PD-1 cells; Jurkat PD-1 cells
T1 sequence (Q15116 25-288): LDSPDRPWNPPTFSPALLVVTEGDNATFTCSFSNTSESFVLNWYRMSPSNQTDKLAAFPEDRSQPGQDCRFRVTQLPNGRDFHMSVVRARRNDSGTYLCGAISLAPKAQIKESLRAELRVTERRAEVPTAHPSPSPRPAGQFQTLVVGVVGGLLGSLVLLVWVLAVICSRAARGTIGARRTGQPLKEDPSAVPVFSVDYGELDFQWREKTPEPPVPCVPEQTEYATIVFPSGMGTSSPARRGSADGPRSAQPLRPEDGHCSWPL
Assay: flow cytometry on CHO-PD-1 cells
Write down the value, and be sure its unit follows.

Reference set, count: 2
binder	meas.value
RG1B3 (IgG) (antibody, V domains shown, Detected with anti-human IgG (gamma chain specific); also called PD1 RG1B3) VH: QVQLVQSGAEVKKPGASVKVSCKASGYTFTSYGISWVRQAPGQGLEWMGWISAYNGNTNYAQKLQGRVTMTTDTSTSTAYMELRSLRSDDTAVYYCARGLYGDEDYWGQGTLVTVSS VL: LPVLTQPPSVSEVPGQRVTISCSGGISNIGSNAVNWYQHFPGKAPKLLIYYNDLLPSGVSDRFSASKSGTSASLAISGLRSEDEADYYCAAWDDNLSAYVFATGTKVTVL	0.183 nM
anti-PD-1 antibody RG1H10 (IgG, isotype not stated in the assay) (antibody, V domains shown, also called PD1 RG1H10) VH: QVQLVQSGSELKKPGASVKISCKASGYIFSDNGVNWVRQAPGQGLEWMGWINTKIGNPTYAQGFTGRFVFSLDTSISTTYLQISSLQAGDTAVYYCAREHDYYYGMDVWGQGTTVTVSS VL: QSALTQPPSASGSPGQSVTISCTGTSSDVGGYNYVSWYQHHPGKAPKLMIYEVSKRPSGVPDRFSGSKSAITASLTISGLLTEDEADYYCSAWDDSLNADVFGGGTKVTVL	0.0358 nM

Then there is this binder:
Incoming: What measured EC50 goes with H7 (IgG) (antibody, V domains shown, Detected with anti-human IgG (gamma chain specific); also called PD1 H7) VH: QVQLVQSGSELKKPGASVKISCKASGYIFSDNGVNWVRQAPGQGLEWMGWINTKIGNPTYAQGFTGRFVFSLDTSVSTTYLQISSLQAGDTAVYYCAREHDYYYGMDVWGQGTTVTVSS VL: QSVLTQPASVSGSPGQSVTISCTGSSSDVGAYNFVSWYRQYPGKAPKLLIYEVNKRPSDVPDRFSGSKFGNTASLTVSGLQADDEADYYCSSYAGSTDVFGTGTKVTVL ?
Outgoing: 0.223 nM
